- System: asexual P. falciparum 3D7 wild-type parasites
- Measurement Notes: P. falciparum asexual growth inhibition assay (SYBR Safe DNA replication)
- Assay type: cell-based, Plasmodium falciparum
- Experimental Conditions: Plasmodium falciparum, 3D7, 24 h, 24 h, starting at ring stages; read-out: IC50, P. falciparum asexual growth inhibition
Observation Type: IC50 (µM)

Compound	Tested Target	Endpoint Result
CC(C)OC(=O)CCC(=O)O[C@H]1CC[C@H]2[C@@H]3CC=C4C[C@@H](O)CC[C@]4(C)[C@H]3CC[C@]12C [C-17-link]	asexual P. falciparum 3D7 wild-type parasites	31.6
COc1cc(NC(C)CCCNC(=O)CCC(=O)O[C@H]2CC[C@H]3[C@@H]4CC=C5C[C@@H](O)CC[C@]5(C)[C@H]4CC[C@]23C)c2ncccc2c1 (some centres unmarked) [C-17-PQ]	asexual P. falciparum 3D7 wild-type parasites	3.1

---

- Measurement Notes: Human hepatoma viability assay (CellTiter-Blue)
- Type: cell-based
- Experimental Conditions: human, 0.015241580 uM; replicate data points; read-out: Huh7 viability, dose-response data points (Figure 3F)
- Procedure: Huh7 hepatoma viability assays were conducted in the same manner as the P. berghei assays, with metabolic capacity (indicating viability) measured with a fluorescence microplate reader after incubation with CellTiter-Blue® (Promega) for 3 h. Appendix Fraser/Curtis et al. […] Human Hepatoma Viability Assays: […] Viability assays were performed in parallel to the P. berghei growth inhibition. […] Fluorescence intensity was measured with 530/25 ex and 590/20 em in a Synergy HTX plate reader (Agilent).

Molecule	viability at 48 h, 0.0152416 µM / %
COc1cc(NC(C)CCCNC(=O)CCC(=O)O[C@H]2CC[C@H]3[C@@H]4CC=C5C[C@@H](O)CC[C@]5(C)[C@H]4CC[C@]23C)c2ncccc2c1 (stereo partly shown)	94.8

---

- Measurement Notes: Human hepatoma viability assay (CellTiter-Blue)
- Format: cell-based
- Experimental Conditions: human, 0.045724740 uM; replicate data points; read-out: Huh7 viability, dose-response data points (Figure 3F)

Molecule	viability at 48 h, 0.0457247 µM (%)
COc1cc(NC(C)CCCNC(=O)CCC(=O)O[C@H]2CC[C@H]3[C@@H]4CC=C5C[C@@H](O)CC[C@]5(C)[C@H]4CC[C@]23C)c2ncccc2c1 (stereo partly shown)	94.9

---

- Tested on: human embryonic kidney cells (HEK293)
- Measurement Notes: Human embryonic kidney cell viability assay (MTT)
- Format: cell-based
- Experimental Conditions: 96 h, HEK293; read-out: IC50, human embryonic kidney cell inhibition (viability)
Observation Type: IC50

                                   compound  observation_type  endpoint_result
0  CC(C)(C)OOC(C)(C)C [Di-tert-butyl peroxide, di-tert-butyl peroxide, reference compound]              IC50         > 100 µM

---

- System: human embryonic kidney cells (HEK293)
- Measurement Notes: Human embryonic kidney cell viability assay (MTT)
- Format: cell-based
- Experimental Conditions: Homo sapiens; 96 h, HEK293; read-out: IC50, human embryonic kidney cell inhibition (viability)
Listed molecules paired with reported IC50
Observation Type: IC50

Molecule	Endpoint Result
COc1cc(NC(C)CCCNC(=O)CCC(=O)OC(C)C)c2ncccc2c1 (centres unmarked) [PQ-link]	13.3 µM
COc1cc(NC(C)CCCNC(=O)CCC(=O)O[C@H]2CC[C@H]3[C@@H]4CC=C5C[C@@H](O)CC[C@]5(C)[C@H]4CC[C@]23C)c2ncccc2c1 (some centres unmarked) [C-17-PQ]	> 50 µM
CC(C)OC(=O)CCC(=O)O[C@H]1CC[C@H]2[C@@H]3CC=C4C[C@@H](O)CC[C@]4(C)[C@H]3CC[C@]12C [C-17-link]	43.6 µM
CC(C)(C)OOCCO[C@H]1CC[C@H]2[C@@H]3CC=C4C[C@@H](O)CC[C@]4(C)[C@H]3CC[C@]12C [C-17-perox]	31.3 µM
C[C@]12CC[C@H](O)CC1=CC[C@@H]1[C@@H]2CC[C@]2(C)C(=O)CC[C@@H]12 [DHEA, Dehydroepiandrosterone]	88.5 µM

---

Listed here: items and their measured IC50.
- Test system: asexual P. falciparum 3D7 wild-type parasites
- Measurement Notes: P. falciparum asexual growth inhibition assay (SYBR Safe DNA replication)
- Format: cell-based, Plasmodium falciparum
- Experimental Conditions: Plasmodium falciparum, 3D7, 48 h, 48 h; read-out: IC50, P. falciparum asexual growth inhibition

Compound	Tested Target	Output Unit	IC50
CC(C)OC(=O)CCC(=O)O[C@H]1CC[C@H]2[C@@H]3CC=C4C[C@@H](O)CC[C@]4(C)[C@H]3CC[C@]12C [C-17-link]	asexual P. falciparum 3D7 wild-type parasites	µM	40.2
COc1cc(NC(C)CCCNC(=O)CCC(=O)O[C@H]2CC[C@H]3[C@@H]4CC=C5C[C@@H](O)CC[C@]5(C)[C@H]4CC[C@]23C)c2ncccc2c1 (some centres unmarked) [C-17-PQ]	asexual P. falciparum 3D7 wild-type parasites	µM	3

---

- Measurement Notes: Human hepatoma viability assay (CellTiter-Blue)
- Assay type: cell-based
- Experimental Conditions: human, Huh7 hepatoma cells, 0.137174210 uM; replicate data points; read-out: Huh7 viability, dose-response data points (Figure 3F)
Observation Type: viability at 48 h, 0.137174 µM

>>> print(df.to_string())
                                   compound                observation_type  endpoint_result
0  COc1cc(NC(C)CCCNC(=O)CCC(=O)OC(C)C)c2ncccc2c1 (stereo not shown) [PQ-link]  viability at 48 h, 0.137174 µM            99.3%
